# Target entity: T1, biotinylated CD3 epsilon:delta heterodimer protein (Amsbio AMS.CDD-H52WO) (Homo sapiens (Human), UniProt P07766 23-126; P04234 22-105)
# T1 construct: also called CD3 heterodimer
# Assay notes: BLI (Octet), CD3 on SA sensor, Fab analyte;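 further: biolayer interferometry with biotinylated CD3 epsilon:delta captured on streptavidin sensors, Fab analyte at several concentrations up to 300 nM, 100 s association then 300 s dissociation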
Quantity measured: koff (s⁻¹)
Please give a number only; it is taken to be in s⁻¹.

The examples below pair each entry with its known result.
* huSP34.8.4 Fab-HF (Fab, V domains shown, also called HC8+LC4) VH: EVQLVESGGGLVQPGGSLRLSCAASGFTFSDYAMNWVRQAPGKGLEWVGRTRSKYNNYATYYAASVKGRFTISRDDSKNSLYLQMNSLKTEDTAVYYCVRHGNFGHSYVSWFAVWGQGTLVTVSS VL: QAVVTQEPSLTVSPGGTVTLTCGSSTGAVTTSHYANWVQQKPGQAPRGLIGGTSKRAPWTPARFSGSLLGGKAALTLSGAQPEDEAEYYCALWYSALWVFGGGTKLTVL | 0.163
* huSP34.10.6 Fab-HF (Fab, V domains shown, also called HC10+LC6) VH: EVQLVESGGGLVQPGGSLRLSCAASGFTFSDYAMNWVRQAPGKGLEWVGRTRSKYNSYATYYAASVKGRFTISRDDSKNSLYLQMNSLKTEDTAVYYCVRHGNFGHSYVSWFAVWGQGTLVTVSS VL: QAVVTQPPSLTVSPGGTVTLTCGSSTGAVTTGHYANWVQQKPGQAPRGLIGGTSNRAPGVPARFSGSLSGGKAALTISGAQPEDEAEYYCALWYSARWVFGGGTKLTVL | 0.157

# next binder below
Consider huSP34.3.4 Fab-HF (Fab, V domains shown, also called HC3+LC4) VH: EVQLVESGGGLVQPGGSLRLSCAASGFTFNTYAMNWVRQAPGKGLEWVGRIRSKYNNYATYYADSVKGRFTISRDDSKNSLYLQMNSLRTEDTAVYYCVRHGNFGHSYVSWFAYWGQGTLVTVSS VL: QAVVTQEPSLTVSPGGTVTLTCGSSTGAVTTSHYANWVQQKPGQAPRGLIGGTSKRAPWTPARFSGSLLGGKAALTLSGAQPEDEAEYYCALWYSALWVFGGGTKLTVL . Its measured koff is 0.0246
